# test-description: Animal PK study in mouse via i.v., p.o. and s.c. administration
# Assay type: in vivo
# measurement-setup: p.o.
# Description: All treated animals received a single dose of a test compound (either through i.v., p.o., or s.c. administration) according to the regimen shown in the following table: […] For i.v. and s.c dose groups, appropriate amount of test compound was dissolved in 1% DMSO (increase to 5% maximum if necessary), 99% of 20% HP-β-Cyclodextron (w/v). […] All plasma samples were added to acetonitrile for protein precipitation and quantitatively analyzed by LC-MS/MS.
property-label: PK CL p.o. (mL/min/kg)
Kindly provide the numeric value in mL/min/kg only, without the unit symbol.

Looking up CC(NC(=O)Nc1ccc(S(=O)(=O)Nc2ccc3c(c2)CCN(C)C3)cc1)c1cccc(Cl)c1Cl (stereo not shown) [H1333] , I see its PK CL p.o. listed as 1400

Looking up COc1cc(S(=O)(=O)Cc2ccc3c(c2)CCNC3)ccc1NC(=O)NC(C)c1cccc(Cl)c1Cl.Cl (stereo not shown) [H1415] , I see its PK CL p.o. listed as 1240

Looking up CC(NC(=O)Nc1ccc(S(=O)(=O)Cc2ccc3c(c2)CNC3)cc1)c1ccc(F)cc1 (stereo not shown) [H1262] , I see its PK CL p.o. listed as 1847

Looking up COc1cc(S(=O)(=O)Cc2ccc3c(c2)CN(C)C3)ccc1NC(=O)NC(C)c1ccccc1 (stereo not shown) [H1388] , I see its PK CL p.o. listed as 675

Looking up CC(c1ccccc1)N(C)C(=O)Nc1ccc(S(=O)(=O)Cc2ccc3c(c2)CN(C)C3)cc1 (stereo not shown) [H1381] , I see its PK CL p.o. listed as 295

Looking up CC(NC(=O)Nc1ccc(S(=O)(=O)Cc2ccc3c(c2)CN(C)C3)cc1O)c1ccccc1 (stereo not shown) [H1448] , I see its PK CL p.o. listed as 4243

Looking up COc1ccc([C@@H](C)NC(=O)Nc2ccc(S(=O)(=O)Cc3ccc4c(c3)CCN(C)C4)cc2)c(Cl)c1Cl [H1417] , I see its PK CL p.o. listed as 226.8

###

# test-description: Metabolic stability in human liver microsomes
# Assay type: in vitro ADME
# Protocol: Metabolic Stability Study The metabolic stability of compounds in human, dog, rat and mouse liver microsomes was performed according the experimental conditions reported below: • a) Prepare the following 5 stock solutions: • 1. […]
property-label: Metabolic Stability Study H = human

Looking up COc1ccccc1C(C)NC(=O)Nc1ccc(S(=O)(=O)Cc2ccc3c(c2)CNC3)cc1F.Cl (centres unmarked) , I see its Metabolic Stability Study H = human listed as 34.6 µL/min/mg

Looking up "C[C@H](NC(=O)Nc1ccc(S(=O)(=O)Nc2ccnc(N)n2)cc1)c1cccc(Cl)c1Cl" , I see its Metabolic Stability Study H = human listed as 10.7 µL/min/mg

Looking up CC(NC(=O)Nc1ccc(S(=O)(=O)Cc2ccc(CN3CCCC3)cc2)cc1)c1ccccc1 (centres unmarked) , I see its Metabolic Stability Study H = human listed as 109.7 µL/min/mg

Looking up "C[C@@H](NC(=O)Nc1ccc(S(=O)(=O)Cc2cc(F)c3c(c2)CNC3)cc1)c1ccccc1.Cl" , I see its Metabolic Stability Study H = human listed as 67.4 µL/min/mg

Looking up COC(=O)c1cc(NC(=O)NC(C)c2ccccc2)ccc1S(=O)(=O)Cc1ccc2c(c1)CNC2 (centres unmarked) , I see its Metabolic Stability Study H = human listed as 37.3 µL/min/mg

Looking up COc1cc(S(=O)(=O)Cc2ccc3c(c2)C(F)CN(C)C3)ccc1NC(=O)N[C@H](C)c1cccc(Cl)c1Cl (some centres unmarked) , I see its Metabolic Stability Study H = human listed as 323.3 µL/min/mg

Looking up COc1cccc(C(C)NC(=O)Nc2ccc(S(=O)(=O)Cc3ccc4c(c3)CN(C)C4)cc2)c1 (centres unmarked) [H1327] , I see its Metabolic Stability Study H = human listed as 165.3 µL/min/mg

Looking up CC(NC(=O)Nc1ccc(S(=O)(=O)Cc2ccc3c(c2F)CNC3)cc1)c1c(F)cccc1F (centres unmarked) , I see its Metabolic Stability Study H = human listed as 73.3 µL/min/mg

Looking up "CCN1CCc2cc(NS(=O)(=O)c3ccc(NC(=O)N[C@@H](C)c4ccc(OC)c(Cl)c4Cl)cc3)ccc2C1" , I see its Metabolic Stability Study H = human listed as < 10 µL/min/mg

Looking up CCc1ccc(Cl)c(C(C)NC(=O)Nc2ccc(S(=O)(=O)Cc3ccc4c(c3)CN(C)C4)cc2)c1 (centres unmarked) , I see its Metabolic Stability Study H = human listed as 251.8 µL/min/mg

Looking up COc1cc(S(=O)(=O)Cc2ccc3c(c2)CN(C)C3)ccc1NC(=O)NC(C)c1cccc2ccccc12 (centres unmarked) , I see its Metabolic Stability Study H = human listed as 310.0 µL/min/mg

Looking up C[C@@H](NC(=O)Nc1ccc(S(=O)(=O)Cc2ccc3c(c2)C(F)CN(C)C3)cc1)c1cccc(Cl)c1Cl (some centres unmarked) , I see its Metabolic Stability Study H = human listed as 237.3 µL/min/mg

Looking up "C[C@@H](NC(=O)Nc1ccc(S(=O)(=O)Cc2ccc3c(c2)CCN(C)C3)cc1)c1cccc(Cl)c1Cl" , I see its Metabolic Stability Study H = human listed as 71.9 µL/min/mg

Looking up "Cl.O=C(NCc1cccc(Cl)c1Cl)Nc1ccc(S(=O)(=O)Cc2ccc3c(c2)CNC3)cc1" , I see its Metabolic Stability Study H = human listed as 12.6 µL/min/mg

Looking up COc1cc(S(=O)(=O)Cc2ccc3c(c2)CCNC3)ccc1NC(=O)NC(C)c1cccc(Cl)c1Cl.Cl (centres unmarked) , I see its Metabolic Stability Study H = human listed as < 10 µL/min/mg

Looking up "C[C@@H](NC(=O)Nc1ccc(S(=O)(=O)Nc2ccnc(N)n2)cc1)c1cccc(Cl)c1Cl" , I see its Metabolic Stability Study H = human listed as < 10 µL/min/mg

Looking up COc1cc(S(=O)(=O)Cc2ccc3c(c2)CCN(C)C3)ccc1NC(=O)NC(C)c1ccccc1 (centres unmarked) , I see its Metabolic Stability Study H = human listed as 86.7 µL/min/mg

Looking up "CC(C)(N)Cc1ccc(NS(=O)(=O)c2ccc(NC(=O)NCc3ccccc3)cc2)cc1.Cl" , I see its Metabolic Stability Study H = human listed as 18.5 µL/min/mg

Looking up CC1c2ccccc2CCN1C(=O)Nc1ccc(S(=O)(=O)Cc2ccc3c(c2)CNC3)cc1 (centres unmarked) , I see its Metabolic Stability Study H = human listed as 35.1 µL/min/mg

Looking up CC(NC(=O)Nc1ccc(S(=O)(=O)Cc2ccc3c(c2)CN(C)C3)cc1O)c1ccccc1 (centres unmarked) , I see its Metabolic Stability Study H = human listed as 28 µL/min/mg

Looking up CC(NC(=O)Nc1ccc(S(=O)(=O)Cc2cc(F)c3c(c2)CCN(C)C3)cc1)c1cccc(Cl)c1Cl (centres unmarked) , I see its Metabolic Stability Study H = human listed as 151.7 µL/min/mg

Looking up CC(NC(=O)Nc1ccc(S(=O)(=O)Cc2ccc3c(c2)CNC3)cc1)c1ccccc1Cl.Cl (centres unmarked) , I see its Metabolic Stability Study H = human listed as 48.8 µL/min/mg

Looking up CC(NC(=O)Nc1ccc(S(=O)(=O)Nc2ccc3c(c2)CN(C)C3)cc1)c1ccccc1 (centres unmarked) , I see its Metabolic Stability Study H = human listed as 49.4 µL/min/mg

Looking up COc1ccc(C(C)NC(=O)Nc2ccc(S(=O)(=O)Cc3ccc4c(c3)CNC4)cc2)c2ccccc12 (centres unmarked) , I see its Metabolic Stability Study H = human listed as 19.2 µL/min/mg
